test: galactose survival enhancers in mitochondrial complex I cybrids – cell-based, galactose medium, ATP luminescence, primary screen (AID 1645843); conditions: complex I mutant cybrid cells, 72 h, stronger effect = higher value;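 further: positive z means more ATP and so rescue of galactose-driven cybrid death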
Rule: 1.0 for z-score not less than -0.2, 0.0 for anything less.

Tell me whether z-score is at least -0.2 here: O=[N+]([O-])c1cc(Cl)ccc1S(=O)(=O)N1CCN(Cc2ccccc2)CC1 0.0

Does the molecule CC(C)Oc1ccc2c(=O)c3cc(C(=O)O)ccc3oc2c1 have recorded z-score that is -0.2 or more? 1.0

Tell me whether z-score is at least -0.2 here: CC(C)NCCN(C(C)C)S(=O)(=O)c1ccc(Cl)cc1Cl 0.0

Check the entry C[C@H](NC[C@H](O)CP(=O)(O)Cc1ccccc1)c1ccc(Cl)c(Cl)c1 : does z-score equal or exceed -0.2? 1.0

Hello, I need to know if COC(=O)C1=C(C)NC(C)=C(C(=O)OCCSc2ccccc2)C1C (stereo unspecified) has measured z-score not below -0.2. Thanks! 0.0

Identify whether the reported z-score of the following molecule is -0.2 or greater: CCC(=O)NC1Cc2ccccc2C(c2ccccc2)C1 (stereo unspecified) 1.0

====

Provide the reported fold change of each item.
test: viability loss with induced miR-34 in A549 – imaging, A549 dox-inducible miR-34, nuclei and caspase counts, primary screen (AID 1347080); conditions: A549 miR-34 inducible, Hoechst nuclei count, 48 h; measured here: relative caspase fold change +Dox/-Dox

Give fold change for CN(CCOc1ccc(CC(Nc2ccccc2C(=O)c2ccccc2)C(=O)O)cc1)c1ccccn1 (centres undefined) 1.08

Report fold change for COc1cc(C[C@H]2C(=O)OC[C@@H]2Cc2ccc(OC)c(OC)c2)ccc1O 0.733

Using the record for Nc1nc(NCCc2ccc(O)cc2)nc2nc(-c3ccco3)nn12 , state its measured fold change. 1.15

Report measured fold change; entry is N=C(N)c1ccc(N2CCN(C3CCN(CC(=O)O)CC3)CC2)cc1 0.72

Note down fold change recorded for CCC(C)(C)C(=O)C(=O)N1CCCC[C@H]1C(=O)O[C@H](CCc1ccc(OC)c(OC)c1)c1cccc(N)c1 0.49

Give fold change for the following molecule: C[C@]12CC[C@@H]3c4ccc(O)cc4C[C@@H](CCCCCCCCCS(=O)CCCC(F)(F)C(F)(F)F)C3[C@@H]1CC[C@@H]2O (some centres undefined) 0.852

Note down fold change recorded for NC(Cn1ccc(=O)n(Cc2ccccc2C(=O)O)c1=O)C(=O)O (centres undefined) 1.4

Supply recorded fold change for CCCCC[C@H](O)/C=C/[C@H]1C(=O)C[C@H](O)[C@@H]1C/C=C\CCCC(=O)NCCO here. 1.15

Find the measured fold change of Cn1cncc1[C@@](N)(c1ccc(Cl)cc1)c1ccc2c(c1)c(-c1cccc(Cl)c1)cc(=O)n2C and report it. 0.725

====

assay: drug combination growth inhibition, ovarian cancer – cell-based, oncology-focused library, rucaparib conditional, profiling panel (AID 1508598); conditions: patient-derived ovarian cancer cells, CellTiter-Glo viability, 144 h; at 0.313 µM; OCI-P5x cells; with rucaparib 20 µM; stronger effect = lower value; 100% = cells with rucaparib alone
Could you please report measured viability for the items listed next?
Reply numerically in %, unit not repeated.

Identify viability associated with the molecule CC(C)Oc1ccc(C(=O)N[C@H](CNC(=O)CN(C)C)Cc2ccc(-c3cn4cccc([C@H](C)O)c4n3)cc2)cc1Cl 62.3

Note viability for the molecule shown: COc1cc2nccc(Oc3ccc(NC(=O)C4(C(=O)Nc5ccc(F)cc5)CC4)cc3)c2cc1OC 87.8

Quote viability reported for CC(C)OC(=O)C1=CN(C(=O)c2ccc(F)c(F)c2)CC(C)(C)c2c1[nH]c1ccccc21 please. 113

Annotate the molecule Nc1nccc(Oc2ccc(NC(=O)c3c[nH]cc(-c4ccc(F)cc4)c3=O)cc2F)c1Cl with its measured viability. 102

State its viability: Nc1nc(Nc2ccc(S(N)(=O)=O)cc2)nn1C(=O)c1c(F)cccc1F 90.8

Complete the entry with viability for O=C(CCCCCCC(=O)Nc1ccc([C@H]2O[C@@H](CSc3nc(-c4ccccc4)c(-c4ccccc4)o3)C[C@@H](c3ccc(CO)cc3)O2)cc1)NO 104

Please report viability for the following molecule: CC(C)(C)Cn1c(N)nc2ccc(-c3[nH]c(C(C)(C)C)nc3-c3ccc(F)cc3)nc21 103

Hello, please tell me recorded viability for this one: Cn1cnc2c(F)c(Nc3ccc(Br)cc3Cl)c(C(=O)NOCCO)cc21 43.6

Given the molecule COc1cc(Nc2nc3ccccc3nc2NS(=O)(=O)c2ccc(NC(=O)c3ccc(C)c(OC)c3)cc2)cc(OC)c1 , write its reported viability. 107

Using known records, supply viability for CC(C)(C)c1cnc(CSc2cnc(NC(=O)C3CCNCC3)s2)o1 95.6

Give me measured viability, please, for this molecule: Cn1cnc(=N)c2[nH]cnc21 107

Specify viability for COc1cc(Nc2ncc3c(n2)-c2ccc(Cl)cc2C(c2c(F)cccc2OC)=NC3)ccc1C(=O)O and stop. 87.4

Annotate the molecule CN(C)Cc1c(C(=O)NCCOc2ccc(C(=O)NO)cc2)oc2ccccc12 with its measured viability. 69.9

Indicate the recorded viability value for this molecule: Cc1cc2c(F)c(Oc3ncnn4cc(OC[C@@H](C)O)c(C)c34)ccc2[nH]1 113

Read off the recorded viability for Cc1cn(-c2cc(NC(=O)c3ccc(C)c(Nc4nccc(-c5cccnc5)n4)c3)cc(C(F)(F)F)c2)cn1 116

Tell us which viability value is on record for Cc1ccc(F)c(NC(=O)Nc2ccc(-c3cccc4[nH]nc(N)c34)cc2)c1 91.5

Could you please provide reported viability for CC1(O)CC(c2nc(-c3ccc4ccc(-c5ccccc5)nc4c3)c3c(N)nccn23)C1 (stereo not drawn) ? Thanks! 88.6

Fill in viability for record NC(=O)C1CCCc2c1[nH]c1ccc(Cl)cc21 (stereo not drawn) 105

Given the molecule CCCS(=O)(=O)Nc1ccc(F)c(C(=O)c2c[nH]c3ncc(-c4ccc(Cl)cc4)cc23)c1F , write its reported viability. 93.7

Return value of viability for input Cc1cccc(-c2[nH]c(C(C)(C)C)nc2-c2ccc3nccnc3c2)n1 , no commentary. 112

Read off the recorded viability for CC(C)c1ccccc1Cc1cc(C(=O)Nc2ccc(S(=O)(=O)c3ccccc3C(C)(C)C)cc2)c(O)c(O)c1O 112

Look up viability of COC(=O)c1ccc2c(C(=Nc3ccc(N(C)C(=O)CN4CCN(C)CC4)cc3)c3ccccc3)c(O)[nH]c2c1 and report it. 87

Could you please provide reported viability for C[C@@H](Oc1cc(-n2cnc3ccc(CN4CCN(C)CC4)cc32)sc1C(N)=O)c1ccccc1C(F)(F)F ? Thanks! 70.6

Using known records, supply viability for Cc1cnc(Nc2ccc(OCCN3CCCC3)cc2)nc1Nc1cccc(S(=O)(=O)NC(C)(C)C)c1 81.7

Identify measured viability associated with COc1ccc(COc2cc3oc(=O)c4cc(C(C)O)ccc4c3cc2OC)cc1 (stereo not drawn) 102

Tell us which viability value is on record for COc1cc2c(Oc3ccc4[nH]c(C)cc4c3F)ncnc2cc1OCCCN1CCCC1 91.9

Report viability, nothing else, for this molecule: O=c1cc(N2CCOCC2)oc2c(-c3cccc4c3sc3ccccc34)cccc12 99.1

Identify the reported viability for the following entry. Nc1ccn([C@@H]2O[C@H](CO)[C@@H](O)C2(F)F)c(=O)n1 58.9

Provide measured viability value, entry: CCC(CC)CC1(C(=O)Nc2ccccc2SC(=O)C(C)C)CCCCC1 107

Fill in reported viability for this entry: Cc1cccc(-c2nn3c(c2-c2ccnc4ccc(C(N)=O)cc24)CCC3)n1 113

Item CN(NC(=O)CC(=O)NN(C)C(=S)c1ccccc1)C(=S)c1ccccc1 : provide viability 96

Give the reported viability for this molecule. O=C(/C=C/c1cccc(S(=O)(=O)Nc2ccccc2)c1)NO 43.7

Note viability for the molecule shown: CC1(C)CCC(c2ccc(Cl)cc2)=C(CN2CCN(c3ccc(C(=O)NS(=O)(=O)c4ccc(N[C@H](CCN5CCOCC5)CSc5ccccc5)c(S(=O)(=O)C(F)(F)F)c4)cc3)CC2)C1 100

Specify measured viability for CC(C)CC(=O)Nc1n[nH]c2c1CN(C(=O)C1CCN(C)CC1)C2(C)C . 99.5

Please look at this molecule and report its viability: Cc1cc(Nc2nc(N[C@@H](C)c3ncc(F)cn3)ncc2Cl)n[nH]1 85.8

Give me measured viability, please, for this molecule: CC1(C)CNc2cc(NC(=O)c3cccnc3NCc3ccncc3)ccc21 142

Report viability, nothing else, for this molecule: O=C(Nc1cn[nH]c1-c1nc2ccc(CN3CCOCC3)cc2[nH]1)NC1CC1 109

Kindly indicate its recorded viability. Item: CC[C@H](Nc1ncnc2nc[nH]c12)c1nc2cccc(F)c2c(=O)n1-c1ccccc1 103

====

experiment: viability loss with induced miR-34 in A549 – imaging, A549 dox-inducible miR-34, nuclei and caspase counts, primary screen (AID 1347080); settings: A549 miR-34 inducible, Hoechst nuclei count, 48 h; measured here: total cells without miR-34 induction
Class (by cell count) -- low bracket (below 6000), middle bracket (6000 to below 8000), high bracket (8000 or more)

State the band of O=C(c1ccc(F)cc1)C1CCN(CCCCc2ccccc2)CC1 high bracket

Sort CCc1cc2c(c(CC)n1)CCC(=O)N2Cc1ccc(-c2ccccc2-c2nn[nH]n2)cc1 into one of the categories. high bracket

# classify by cell count band: CCCCC[C@H](O)/C=C/[C@@H]1[C@@H](C/C=C\CCCC(=O)OC(C)C)[C@@H](O)C[C@H]1O low bracket

In plain terms, what class is NC(=O)C1CCCc2c1[nH]c1ccc(Cl)cc21 (stereo not given) ? middle bracket

Bin? CCS(=O)(=O)N1CCC[C@@H]2CN3CCc4cc(OC)ccc4[C@@H]3C[C@@H]21 high bracket

Using the reported cell count, which band applies to O=C1NCCc2[nH]c(-c3ccncc3)cc21 ? low bracket

Which cell count category applies to CC1=C(/C=C/C(=C/C=C/C(C)=C/C(=O)O)c2ccc(C)cc2)C(C)(C)CCC1 here? middle bracket

Where do these numbers come from? They come from PubChem BioAssay.
